The origin of these recorded values is patent US5830697A.

- Tested on: MES-SA cells
- test.method.notes: Growth inhibition (MTT) assay, with or without MDR modulators
- Type: cell-based, human
- conditions: MES-SA cells, +6 μM Verapamil
measurement.label: Fold resistance

Example entries and their recorded answers appear below.
COc1cccc2c1C(=O)c1c(O)c3c(c(O)c1C2=O)C[C@@](O)(C(=O)CO)C[C@@H]3O[C@H]1C[C@H](N)[C@H](O)[C@H](C)O1 [Doxorubicin] : 0.5 fold
CC[C@]1(O)C[C@@H]2CN(CCc3c([nH]c4ccccc34)[C@@](C(=O)OC)(c3cc4c(cc3OC)N(C)[C@H]3[C@@](O)(C(=O)OC)[C@H](OC(C)=O)[C@]5(CC)C=CCN6CC[C@]43[C@@H]65)C2)C1 [Vinblastine] : 0.4-1 fold
CC(=O)O[C@H]1C(=O)[C@@]2(C)[C@H]([C@H](OC(=O)c3ccccc3)[C@]3(O)C[C@H](OC(=O)[C@H](O)[C@@H](NC(=O)c4ccccc4)c4ccccc4)C(C)=C1C3(C)C)[C@]1(OC(C)=O)CO[C@@H]1C[C@@H]2O [Paclitaxel] : 0.3-1 fold

Now turn to the next molecule.
So for CC[C@]1(O)C[C@H]2CN(CCc3c([nH]c4ccccc34)[C@@](C(=O)OC)(c3cc4c(cc3OC)N(C=O)[C@H]3[C@@](O)(C(=O)OC)[C@H](OC(C)=O)[C@]5(CC)C=CCN6CC[C@]43[C@@H]65)C2)C1 [Vincristine] , the logged Fold resistance turned out to be 0.3-1 fold
